Tested on: U2OS;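 note: growth inhibition of human U-2-OS cells, determined with a cell viability assay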
protocol-text: cells
Format: functional, cell-based, Homo sapiens, U-2-OS
settings: Homo sapiens, U2OS
Description: SANGER: Inhibition of human U-2-OS cell growth in a cell viability assay.
pIC50: −log10 of the molar value.
This listing pairs compounds with measured pIC50.

{"compound": "O=C(NOCC1CC1)c1ccc(F)c(F)c1Nc1ccc(I)cc1Cl [CI-1040]", "target-under-test": "U2OS", "value-relation-sign": "=", "pIC50": 5.44}
{"compound": "CC(=O)O[C@@]12CO[C@@H]1C[C@H](O)[C@@]1(C)C(=O)[C@H](O)C3=C(C)[C@@H](OC(=O)[C@H](O)[C@@H](NC(=O)OC(C)(C)C)c4ccccc4)C[C@@](O)([C@@H](OC(=O)c4ccccc4)[C@H]21)C3(C)C [DOCETAXEL]", "target-under-test": "U2OS", "value-relation-sign": "=", "pIC50": 8.76}
{"compound": "C[C@]1(O)C[C@@H](c2nc(-c3ccc4ccc(-c5ccccc5)nc4c3)c3c(N)nccn32)C1 [LINSITINIB]", "target-under-test": "U2OS", "value-relation-sign": "<", "pIC50": 5.59}
{"compound": "CC(=O)O[C@@H]1[C@@H](OC(C)=O)[C@@H](O)[C@H](Oc2c(-c3ccc(O)cc3)oc3cc(O)cc(O)c3c2=O)O[C@H]1C", "target-under-test": "U2OS", "value-relation-sign": "<", "pIC50": 5.00}
